Record form. Attribute: pKd. Fill in for each entry.
- study.target: MAGI2_4, Q86UL8
- Sequence (Q86UL8 772-865): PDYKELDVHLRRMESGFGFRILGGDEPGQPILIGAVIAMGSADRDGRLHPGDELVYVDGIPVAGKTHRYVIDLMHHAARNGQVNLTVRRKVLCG
- measurement.description: holdup assay
- Set-up: key: below the threshold = too weak to quantify, mostly under pKd 3.1 to 4
- experimental.context: plain residues with an end cap or a label only (N-terminal biotin on a linker: ado-ado)
Give bare numbers.

# binder, pKd
rows = [
    ("QKNKDKEYYV [NRXN3_rs746444206, Q9Y4C0]", 3.54),
]

We now examine a further binder.
Read off the recorded pKd for TETASVCTKV [SLC23A1, Q9UHI7]
3.58
